# Tested on: CCRIS mutagenicity, Ames/micronucleus/aberration tests
# Assay name: CCRIS mutagenicity studies
# Setup conditions: Test System: AMES SALMONELLA TYPHIMURIUM; Strain/Indicator: TA98; Metabolic Activation: HAMSTER, LIVER, S-9, AROCLOR 1254 (10%); Method: PREINCUBATION
Activity calls are given as the source filed them. The rule behind the calls is not given here.
The reply should be one of these categories: 1 (yes) (active), 0 (no) (inactive)

Q) Hi, sorry to bother you, what did the test record for O=[N+]([O-])CCO ?
A) 0 (no)

Q) How was ClCC(Cl)CCl classified in this test?
A) 1 (yes)

Q) GET /call?item= CNCCS(=O)(=O)O returns the recorded outcome of this test.
A) 0 (no)

Q) Hi, sorry to bother you, what did the test record for CC(=O)Nc1ccccc1N ?
A) 1 (yes)

Q) Assay result, entry CN(C)C(=S)N(C)C — outcome?
A) 0 (no)

Q) What was the test verdict on CC(C)COC(=O)c1ccccc1N ?
A) 0 (no)

Q) Name the outcome recorded for Oc1ccc2ccccc2c1N=Nc1ccccc1 in the assay.
A) 0 (no)

Q) Could you check what this test reported for O=[N+]([O-])c1ccc(NCCO)c(OCCO)c1 ?
A) 1 (yes)

Q) Test call for this compound, please: CCN(CC)c1cccc(O)c1
A) 1 (yes)

Q) # outcome recorded in this test, key = CCCNCCC
A) 0 (no)

Q) Assay outcome for C=C(C)C(=O)OCCCCCCCCCC : what was it?
A) 0 (no)

Q) Dear colleague, could you share the recorded outcome for CCCCCCCCCCCCS when you have a moment?
A) 0 (no)

Q) Recorded call for CC(=O)/C=C/c1ccco1 ?
A) 0 (no)

Q) Recorded call for OC[P+](CO)(CO)CO ?
A) 0 (no)

Q) Please indicate how the test categorized CC1(C)CC(N=C=O)CC(C)(CN=C=O)C1 (configuration not stated) .
A) 0 (no)

Q) Lab log entry: C1=C\CC/C=C\CC/1.C1=C\CC/C=C\CC/1.[Ni] — outcome as called in the assay?
A) 0 (no)

Q) Kindly provide the recorded test outcome for the following compound: CCCCCC
A) 0 (no)

Q) # fetch the recorded call for Cc1ccc(Cl)cc1 here
A) 0 (no)

Q) Could you check what this test reported for O.[Al+3].[Al+3].[Na+].[Na+].[O-2].[O-2].[O-2].[O-2].[O-2].[O-2].[Si+4] ?
A) 0 (no)

Q) Tell me the assay call for CCN(C(=O)N(CC)c1ccccc1)c1ccccc1 please.
A) 0 (no)

Q) Assay outcome for CCOCCOC(=O)/C=C/c1ccc(OC)cc1 : what was it?
A) 0 (no)

Q) I'd appreciate the recorded outcome for CC(C)CNCC(C)C from this test.
A) 0 (no)

Q) For CC(O)CCl (configuration not stated) , which call appears in the assay record?
A) 0 (no)

Q) Which outcome did this test record for the compound O=C1OC(=O)c2c(Cl)c(Cl)c(Cl)c(Cl)c21 ?
A) 0 (no)

Q) Test call, this compound: CCCCC(CC)CNCC(CC)CCCC (configuration not stated)
A) 0 (no)

Q) In this assay, the call recorded for O=C(O)c1ccc2c(c1)C(=O)OC2=O was what?
A) 0 (no)

Q) Could you kindly confirm the outcome this assay logged for c1ccc2c(c1)ccc1ccccc12 ?
A) 0 (no)

Q) Which outcome was entered for the compound CC(C)CN(CC(C)C)CC(C)C in this test?
A) 0 (no)

Q) Record lookup: outcome of this test for CCCCCCCCOP(=O)(OCCCCCCCC)OCCCCCCCC ?
A) 0 (no)

Q) Can you look up the reported call for Oc1c(Br)c(Br)c(Br)c(Br)c1Br for me?
A) 0 (no)

Q) Look up the recorded call for Cc1cc(O)c(C(C)(C)C)cc1Sc1cc(C(C)(C)C)c(O)cc1C in this test.
A) 0 (no)

Q) Which outcome did this test record for the compound O=[N+]([O-])c1cccc(O)c1 ?
A) 0 (no)
